Assay: yeast display, Sf9 membrane polyspecificity reagent, FACS + sequencing; frameworks hold sequencing errors
metric name: polyreactivity (PSR sort gate)

query sequence	metric name	measured
QVQLVESGGGLVQAGGSLRLSCAACGSTFDVNARGWYRQAPGKERELVAAISWSDDDTYYADSVKGRFTISRDNAKNTDYLQKHSLKPEDTAVYYCAADGRYGWYYGVYNGEDYWGQGTQVTVSS	polyreactivity (PSR sort gate)	high polyreactivity
QVQLVESGGGLVQAGGSLRLSCAASGSTFDGNAMGWYRQAPGKERELVAAITYTTSSTYYADSVKGRFTISRDNAKNTVYLQMTSLKPEDTAVYYWGQGTQVTVSS	polyreactivity (PSR sort gate)	low polyreactivity
QVQLVESGGGLVHAGGSLRLSCAASGSIFYNYAKGWYRQAPGKERELVAAIDSGGSTYYADSVKGRFTISRDNAKNTVYLQMNSLKPEDSAVYSCAADTYWFVYYGYDYWGQGTQVTVSS	polyreactivity (PSR sort gate)	low polyreactivity
QVQLVESGGGLVQAGGSLRLSCAASGFIFGHYAMGWYRPAPGKERELVAGINSSGGSTHYADSVKGRFTISRDNAKNTVYLQMNSLKPEDTAVYYCAADVYRYYAGSRYYYWGQGTQVTVSS	polyreactivity (PSR sort gate)	low polyreactivity
QVQLVESGGGIVQAGCSLRLSCAASGSIFSHNAKVGYRQAPGKERELVAAITKGGGRTYYADSVKGRFTISRDNAKNTVYLQMNSLKPEDNAVYYCATAGAHGRERDYWGQGTQVTVSS	polyreactivity (PSR sort gate)	high polyreactivity
QVQLVESGGGLVHAGGSLRLSCAASGSFFRSYAMGWYRQAPGKEMEWVATISSSTGSTYYADSVKGRFTISRDNAKNTVYLQMNSLKPEDTSVYYCAAVQPVKSCSGYHFWYYWGQGTQVTVSS	polyreactivity (PSR sort gate)	high polyreactivity
QVQLVESGGGLVQAGGSLRLSCAASGRIFWGYDMGWYRQAPGKERELVAAINWSGGITNYADSVKGRFTISRDNAKNTVYLQMNSLKPEDTAVYYCAADTYWHRYYWGQGTQVTVSS	polyreactivity (PSR sort gate)	high polyreactivity
QVQLVESGGGLVQAGGSLRLSCAASGSIFHNYDMGWYRQAPGKERELVADISRGGDTNYADSVKGRFTISRDNAKNTVYLQMNSLKPEDTAVYYCNATYWILDSPWWRETFDYWGQGTQVTVSS	polyreactivity (PSR sort gate)	low polyreactivity
QVQLVESGGGLVQAGGSLRLSCAASGLTFYYYVMAWYRQAPGKERELVAAISRSGGSTRYADSVKGRFTISRDNANNTVYLQMNSLKPEDTAVYYCNAVRYPRLMYYWGQGTQVTVSS	polyreactivity (PSR sort gate)	high polyreactivity
QVQLVESGGGLVQAGGSLRLSCAASGRTFPYYDIGWYRKAPGKERELVAAITSGGTTNYADSVKGRFTISRDNAKNTVYLQMNSLKPEDTAVYNCAAGSPWYYFSSYGYWGQGTQVTVSS	polyreactivity (PSR sort gate)	low polyreactivity
QVQLVESGGGLVQAGGSLRLSCAASGSTFYLNAMGWYRQEPGKERELVAAISSGGRTYYADSVKGRFTISRDNAKNTVYFQKNSLKPEDTAVYYCAATRLYWKIFYGDGDYWGQGTQVTVSS	polyreactivity (PSR sort gate)	high polyreactivity

----------
Assay: yeast display, Sf9 membrane polyspecificity reagent, FACS + sequencing; frameworks hold sequencing errors

query sequence	polyreactivity (PSR sort gate)
QVQLVESGGGLVQAGGSLRLSCAASGSTFHDYAMGWYRQAPGKEREFVAAISVRGGSTYYADSVKGRFTISRDNAKNTVYLQMNSLKPEDTAVYYCNKLSSDSYNYWGQGTQVTVSS	high polyreactivity
QVQVVESGGGLVQAGGSLRLSCAASGSIFFFYAMGWYRQAPGQERELVAAITGSGGSTYYADSVKGRFTISRDKAKNTVYLQMNSLKPEDPAVYYCAVRTSRQVYSYGGYESWGHGTQVTVSS	low polyreactivity
QVQLVESGGGLVQAGGSHRLSCAASGSTFTTNAMGWYRQAPGKERELVAAISRRGGSTYYADSVKGRFTISRDNAKNTVYLQMNSLKPEDTAVYYCNAVRAEYEFDYWGQGTQVTVSS	high polyreactivity
QVQLVESGGGLVQAGGSLRLSCAASGSIFPFYAMGWYRQAPGKERELVAAISWSVGNTYYADSVKGRFTISRDNAKNTVYLQMNRLKPEDTAVYYCAARQDPPLGYDYWGQGTQVTVSS	low polyreactivity
QVHIVESGGGLVQAGGSLRLSCAASGFTFFSNAMGWYRQAPGKQRELVASISASGSGTYYAVSVKGRFTISRDNAKNTFYLQMNSLKPDDTAVYYCSTRVGKILTTKYGYWGQGTQVSVSS	high polyreactivity

----------
Test: yeast display, Sf9 membrane polyspecificity reagent, FACS + sequencing; frameworks hold sequencing errors

query sequence	polyreactivity (PSR sort gate)
QVQLVESGGGLVQAGGSLRLSCAASGNIFGWYAMGWYRQAPGKERELVAAISSGGRTNYADSVKGRFTISRDNAKNTVYLQMNSLKPEETAVYYCAVGLHKRPPPPRFRQFNYWGQGTQVTVSS	low polyreactivity
QVQLVESGGGLVQAGGSLRLSCAASGFTFVRYTMGWYRQAPGKERELVAAITASGDRTYYADSVKGRFTISRDNAKNTVYLQMNSLKPEDTAVYYCAARVWRTVTRSKYGYWGQGTQVTVSS	high polyreactivity
QVQLVESGGGLVQAGGSLRLSCAASGLTLGRNAMGWYRQAPGKERELVAAITQSGGSTYYADSVKGRFTISRDNAKNTVYLQMNSLKAEDTAVYYCAAEVVRQWHGIGYDYWGQGTQVTVSS	low polyreactivity
QVQLVESGGGLVQAGGSLRLSCAASGFIFSGNAMGWYRQAPGKEREFVAAISTSAGTTNYADSVKGRFTISRDNAKNTVYLQMNSLKPEDTAVYYCAARSTRRRIYGYWGQGTQVTVSS	high polyreactivity
QVQLVESGGGLVQAGGSLRLSCAASGATFGRNAMGWYRQAPGKERELVAAISWSASRTSYADSVKGRFTISRDNAKNTVYLQMNSLKPEDTAVYYCAARIWRSYYPYDYWGQGTQVTVSS	high polyreactivity
QVQLVESGGGLVQAGGSLRLSCAASGSTARYAMGWNRQAPGKERELVAAITGRTGRTNYADSVKGRFTISRDNAKITVYVQMNSLKPEDTAVYYCAKRAWRAVRWTYGYWGQGSQVTVSS	high polyreactivity
QVQLVESGGGLVQAGGSLRLSCAASGRIFAQNAMGWYRQAPGKERELVAAISWGGGGTYYADSVKGRFTISRDNAKNTVYLQMNSLKPEDTAVYYCAADSPGFGAWDRYEYWGQGTQVTVSW	low polyreactivity
QVQHVESGGGLVQAGGSLSLSCAASGSTFKHYAMGWYRQAPGKERELVAAISSRGGSTHYADSVKGRFRISRDNAKNTVYLQMNSLKPEDTAVYYCARDTDPQSSRSSDYDYWGQGTQVTVSS	low polyreactivity
QVQLVESGGGLVQAGGSLRLSCAASGSIIYRNAMGWYRQAPGKERELDAAISYSGTSTNYADSVKGRFTISRDNAKNTVYLQMNSLKPEDTAVYYCAARGFPHRRHSLYDYWGQGTHVTVSS	low polyreactivity
QVQLVESGGGLVHAGGSLRLSCAASGRIFGTNAMGWYIQAPGKERELVATITRGGGNTYYADSVKVRFTISRDHAMNTVDLQMNSLKPEDTAVYYCNVDYGVHVPPRDYWGQGTQVTVSS	low polyreactivity
QVQLVESGGGLVQAGGSLRLSCAASGSIFYRNAMGWYRQAPGKERELVAAISWSGASTSYADSVKGRFTISPDNAKNTVYLQMNSLIPDATAVYYCNAGKYAYLWLKLFAPKLDYWGQGTQVTVSS	low polyreactivity

----------
Assay: yeast display, Sf9 membrane polyspecificity reagent, FACS + sequencing; frameworks hold sequencing errors

query sequence	polyreactivity (PSR sort gate)
QVQLVESGGGLVQAGGSLRLSCAASGSTFGYYAMGWNRQAPGKERELVATITWSGGSTNYADSVKGRFTISRDNAKNTVYLQMYSLKPEDTAVYYCAADLKYWYFGLAFIEVDYWGQGTQVTVSS	low polyreactivity
QVQLVESGGGLVQAGGSLRLSCAASGRTFVYYAMGWYRQAPGKEREFVAAISRSGGRTSYADSVKGRFTISRDNAKNTVYLQMNSLKPEDTAVYYCAAEKRTQPTSREYYWGQGTQVTVSS	high polyreactivity
QVQLVESGGGLVQAGGSLRLSCAASGRTFGVYAMGWYRQAPGKERELVATIRRGGSTYYADSVKGRFTISRDNAKNTVYLQMNSLKPEDTAVYYCNASHVTWNRKYDYWGQGTQVTVSS	low polyreactivity
QVQLVESGGGLVQAGGSLRLSCAASGSIFDYYAMGWYRQAPGKERELVAAIDSGDITYYADSVKGRFTISRDNAMNTVYLQMNSLKPEETAVYYCAAEGTGYSVGWQYGYWGQGTQVTVSS	low polyreactivity
QVQLVESGGGLVQAGGSLRLSCAASGFIFSRNAMGWYRQAPGNERDLVAAISLRGGSTYYTDSVKGRFTISRDNAKNTVYLQMISLKPEDTAVYYCAAVSGRYLTRDGYWGQGTQVTVSS	high polyreactivity
QVQLVESGGGLVQAGGSLRLSCAASGSIFWYNDMGWYRQAPGKEREFVAAITWDDGSTYYADSVKGRFTISRDNAKNTVYLQMNSLKPEDTAVYYCAAYVWYYDPASGWFITDYDYWGQGTQVTVSS	high polyreactivity
QVQLVESGGGLVQAGGSLRLSCAASGRTFANYAMGWSRQAPGKERELVAAISSGGNTYYADSVKGRFTISRDNAKNTVYLQMNSLKPEDTSVYYCNADYLIKYDYWGKGTQVTVSS	high polyreactivity
QVQLVESGGGLVQAGGSLRLSCPASGFTLHSYAMGWYRQAPGKERELVAAITRSGGGTYYADSVKGRFTISRDNAKNTVYLQMNSLKPEDTAVYYCAARFGGQYQHDYWGQGTQVTVSS	high polyreactivity
QVQLVESGGGLVQAGGSLRLSCAASGRISIKNAMGWYRQAPGQERELVAAIRWSADSTYYADSVKGRFTISRDNAKTTVYLQMNSLKPEDTAVYYCAATGRLRYYWGQGTQVNVSS	high polyreactivity
QVQLVESGGGLVQAGGSLRLSCAASGRIFRGYAMGWYRQPPGTERELVAAITKRGGSTYYADSVKGRFTISRDNEKNTVSLQMNSLKPEDTAVYYCAAYLPGWELREYGYWGQGTQVTVSS	high polyreactivity
QVQLVESGGGLVQAGGSLRLSCAASGFTFSHYAMGWYRQAPGKERELVAAISWGGGSTYYADSVKGRFTISRDNAKNTVYLQMKSLIPEDTAVYYCARDVVYRGYYYGAFDYCGQGTQVTVSS	low polyreactivity
QVQLVESGGGLVQAGGSLRLSCAASGRIITAYYAMGWYRQAPGKERELVASISSSGTSTYADSVKGRFTISRDNAKNTVYLQMNSLKPEDTAVYYCATRKLRTRRYDYGYWGQGTQVTVSS	low polyreactivity
QVQLVESGGGLVQAGGSLRLSCAASGSIFHYYAMGWYRPAPGKERELVAAISWSGGRTYYADSVKGRFTISRDNAKNTVYLQMNSLKPEDTAVYYCAAARGESYEFYSWGQGTQVTVSS	high polyreactivity
QVQLVESGGGLVQEGGSLRLSCAASGRTFAHYAMGWYKQAPGKERELVAAISWSGGSTYYADSVKGRFTISRDNPKNTVYLQMNILKPEDTGVYYCNTLGGTEYGYWGPGTQVTVSS	high polyreactivity
QVQLVESGGGLVQAGGSLRLSCAASGSTYYLYAMGWYRQAPGKESEFVARISASGGNTYYADSVKGRFTISRDNAKNTVYLQMNRLIPEDTAVFYCAARVRGRNASDYDYYYWGQGTQVTVSS	high polyreactivity
QVQLVESGGGLVQAGGSLRLSCAASGITFGRNTMGWYRQAPGKERELVASINKSGGSTYYADSVKGRFTISRDNAKNTVYLQMNSLKPEDTAVYYCAARTGWPRVGFLYPAHVGFDYWGQGTQVTVSS	low polyreactivity
QVQLVESGGGLVQAGGSLRLSCAASGRTFLYYTMGWYRQAPGKERELVAAINWSGGRTYYADSVKGRFTISRDNAKNTVYLQMNSLKPEDTAVYYCNADSRYRYDYWGQGTQVTVSS	low polyreactivity
QVQLVESGGGLVQAGGSLRLSCAASRSTFRYYTMGWYRQSPGKERELVARISRSGGSTYYADSVKGRFTISRDNAKNTVYLQMNSLKPEDTSVYYCAALYYVKPGQRYDYWGQGTQVTVSS	high polyreactivity
QVQLVESGGGLVQAGGSLRLSCAASGLTFDPYAMGWYRQAPGKEREFVAAINSDDGSTYYADSVKGRFTISRDNAKNTVYLQMNSLKPEDTAVYYCNADLAHFLWYQYDYWGQGTQVTVSS	low polyreactivity
QVQLVESGGGLVQAGGSLRISCAASGIIFYRNAMGWYRQAPGKERELVAVITASGGNTYYADSVKGRFTISRDNAKNTVYLQMNSLKPEDTAVYYCNRELTSPRRWHVSRAYDYWGQGTQVTVSS	low polyreactivity
QVQLVESGGGLVQAGGSLRLSCAASGNTLWRNAMGWYRQAPGKERELVATISSVGTYYADSVKGRFTISRDNAKNSVYFQMNSLKPEDTAVYYCAARIWAFYSRRYFWGQGTQVTVSS	high polyreactivity
